Assay: Plasma clearance in Sprague-Dawley rat at 1 mg/kg, iv and 2 mg/kg, po
Type: ADME, organism-based
QUANTITY: log10(clearance) (log10 of the value in mL/min/kg)

[
  {
    "STRUCTURE_SMILES": "COc1ccc(Oc2cc(Nc3ccccc3C(N)=O)c(C(F)(F)F)cn2)cc1",
    "RECORDED_VALUE": 0.48
  },
  {
    "STRUCTURE_SMILES": "NC(=O)c1ccccc1Nc1cc(Oc2ccc(-n3cncn3)cc2)ncc1C(F)(F)F",
    "RECORDED_VALUE": 0.78
  },
  {
    "STRUCTURE_SMILES": "NC(=O)c1ccccc1Nc1ccnc(Oc2ccc(N3CCNCC3)cc2)c1",
    "RECORDED_VALUE": 1.58
  },
  {
    "STRUCTURE_SMILES": "COc1ccc(Oc2ncc(Cl)c(Nc3ccccc3C(N)=O)n2)cc1",
    "RECORDED_VALUE": 1.34
  },
  {
    "STRUCTURE_SMILES": "COc1ccc(Oc2cc(Nc3ccccc3C(N)=O)c(Cl)cn2)cc1",
    "RECORDED_VALUE": 1.11
  }
]
